- TARGET_ENTITY: T1, human β-NGF (human, UniProt P01138 122-241, biotinylated (site not stated))
- T1 construct: also called biotinylated human β-NGF; nerve growth factor
- PROTOCOL_SUMMARY: radioactive equilibrium binding assay

BINDER	Kd (nM)
61362-F2 (designed binder, group N2; Δ67-70, P71A) MTIPEIIIKVRGTQVVGSDMTVIVEFINTSNETLPSVWVHLDGPGVTRPMKKMFPEIPPNSSVQWEAWVSGHRKLIASMIRDSSRHVYGELDVQIQRRDYKDDDDK	62
61362-B8 (I23L) (designed binder, group N4; I23L) MTIPEIIIKVRGTQVVGSDMTVLVEFTIPLQDILNVWVHLDGPGVTRPMKKMFFSIRMTPAVQWEEVVRPWVSGHRKLIASMSFHTHRHVYGELDVQIQRRDYKDDDDK	3.8
61363-C1 (G17D) (designed binder, group N3; G17D) MTIPEIIIKVRGTQVVDSDMTVIVEFTDTVLEILRTVWVHLDGPGVTRPMKKMFPHIRPKVTVQWEEVVRPWVSGHRKLIASMLIASLRHVYGELDVQIQRRDYKDDDDK	2.8
61363-H1 (V15A) (designed binder, group N4; V15A) MTIPEIIIKVRGTQAVGSDMTVIVEFTNPLKETLYNVWVHLDGPGVTRPMKKMFWEIRTNHPVQWEEVVRPWVSGHRKLIASMSSNSRDHVYGELDVQIQRRDYKDDDDK	22.9
61363-C12 (G45E) (designed binder, group N4; G45E) MTIPEIIIKVRGTQVVGSDMTVIVEFTNPLEENLYNVWVHLDGPEVTRPMKKMFYQISTNIPVQWEEVVRPWVSGHRKLIASMGAHTKDHVYGELDVQIQRRDYKDDDDK	36
61362-C6 (designed binder, group N1) MTIPEIIIKVRGTQVVGSDMTVIVEFTNPLNEPLLFVWVHLDGPGVTRPMKKMFRIISPHATVQWEEVVRPWVSGHRKLIASMSIGFQAHVYGELDVQIQRRDYKDDDDK	24

Data credit: patent US20110059504A1
